Data origin, for the record: the supplement of paper PMC5908809

A collection of compounds and their measured drug sensitivity score
- Tested on: NK-92 (IL-2 2.5 ng/mL)
- ASSAY REMARKS: drug sensitivity score (DSS) (DSS units); higher = more sensitive; extreme values may be limits of the assay
- EXPERIMENTAL SETUP: 72 h
# respond with the number and nothing more

Indicate its recorded drug sensitivity score; the compound in question is CNC(=O)c1ccc(N2C(=S)N(c3cnc(C#N)c(C(F)(F)F)c3)C(=O)C23CCC3)cc1F [ARN 509] (max concentration tested 10000 nM)
0.72

Answer with reported drug sensitivity score of Cn1cc(-c2ccc3nnc(C(F)(F)c4ccc5ncccc5c4)n3n2)cn1 (max concentration tested 10000 nM)
2.9

Please report the measured drug sensitivity score for COc1cc(C(=O)O)ccc1NC(=O)[C@@H]1N[C@@H](CC(C)(C)C)[C@](C#N)(c2ccc(Cl)cc2F)[C@H]1c1cccc(Cl)c1F [RG7388] (max concentration tested 10000 nM)
5

Respond only with drug sensitivity score recorded for CCn1cc(-c2ccnc3[nH]c(-c4cccc(CN(C)C)c4)cc23)c(-c2ccc(NC(=O)N(C)C)cc2)n1 (max concentration tested 1000 nM)
5.05

* * *

- System: DERL-7 (IL-2 2.5 ng/mL)
- ASSAY REMARKS: percent inhibition of viability; higher = more inhibition
- EXPERIMENTAL SETUP: 72 h; 100 nM
Listed below: percent inhibition of viability values for each entry.
Field format: number, assumed %, no unit text.

Some solved entries appear below for comparison.
# COMPOUND, ASSAY READOUT, RECORDED NUMBER
rows = [
    ("Cc1cc(C)c(CNC(=O)c2cc(-c3ccc(CN4CCOCC4)cc3)cc3c2cnn3C2CCCC2)c(=O)[nH]1 [EPZ-5687] (max concentration tested 10000 nM)", "percent inhibition of viability", -10.3),
    ("NC(=O)N1CCC(CC(=O)N2CCC([C@H]3c4ncc(Br)cc4CCc4cc(Cl)cc(Br)c43)CC2)CC1 [Lonafarnib] (max concentration tested 10000 nM)", "percent inhibition of viability", 5.47),
]

# ---- query compound ----
// fetch percent inhibition of viability given entry COc1c(C)cnc(Cn2cnc3c(Cl)nc(N)nc32)c1C [BIIB021] (max concentration tested 10000 nM)
62.9

* * *

- System: NKL (IL-2 2.5 ng/mL)
- ASSAY REMARKS: percent inhibition of viability; higher = more inhibition
- EXPERIMENTAL SETUP: 72 h; 10 nM
Below, each entry is listed alongside its reported percent inhibition of viability.
Kindly answer with a numeric value in %, unit omitted.

# COMPOUND, ASSAY READOUT, UNIT STRING, RECORDED NUMBER
data = [
    ("COc1ccc(C2=N[C@@H](c3ccc(Cl)cc3)[C@@H](c3ccc(Cl)cc3)N2C(=O)N2CCNC(=O)C2)c(OC(C)C)c1 [Nutlin-3] (max concentration tested 10000 nM)", "percent inhibition of viability", "%", -3.19),
    ("c1ccc2c(CCNc3ccc(Nc4ccncc4)cc3)c[nH]c2c1 [Serdemetan] (max concentration tested 10000 nM)", "percent inhibition of viability", "%", -6.86),
]

Moving on to the next compound.
Supply percent inhibition of viability value. Item: CNC(=O)c1ccc(N2C(=S)N(c3ccc(C#N)c(C(F)(F)F)c3)C(=O)C23CCC3)cc1F [RD162] (max concentration tested 10000 nM)
-5.72

* * *

Readings of relative IC50 for the listed molecules
- Tested on: DERL-7 (IL-2 2.5 ng/mL)
- ASSAY REMARKS: relative IC50 (inflection point of fitted viability curve, relative to fitted max inhibition); higher = less sensitive
- EXPERIMENTAL SETUP: 72 h
Write the number in nM without appending the unit.

# MOLECULE, relative IC50 / nM
measured = [
    ("COc1cccc2c1C(=O)c1c(O)c3c(c(O)c1C2=O)C[C@@](O)(C(=O)CO)C[C@@H]3O[C@H]1C[C@H](N)[C@H](O)[C@H](C)O1", 32.3),
    ("Cc1sc2c(c1C)C(c1ccc(Cl)cc1)=N[C@@H](CC(=O)OC(C)(C)C)c1nnc(C)n1-2 [(+)JQ1]", 76.9),
]

Proceed to the following item.
Give relative IC50 for the following molecule: "C[C@@H]1CCN(C(=O)CC#N)C[C@@H]1N(C)c1ncnc2[nH]ccc12"
99.5

* * *

- Test system: NKL (IL-2 2.5 ng/mL)
- ASSAY REMARKS: percent inhibition of viability; higher = more inhibition
- EXPERIMENTAL SETUP: 72 h; 1 nM
Property: percent inhibition of viability; scope: individual compounds
Return type: number; implicit unit %.

# COMPOUND, UNIT STRING, percent inhibition of viability
records = [
    ("C[C@]1(O)C[C@@H](c2nc(-c3ccc4ccc(-c5ccccc5)nc4c3)c3c(N)nccn32)C1 [Linsitinib] (max concentration tested 10000 nM)", "%", -9.46),
    ("CNC(=O)CN1CCC(Oc2cc3c(Nc4cccc(Cl)c4F)ncnc3cc2OC)CC1 [Sapitinib] (max concentration tested 1000 nM)", "%", -1.96),
    ("Cc1ccccc1C(C(=O)NC1CCCCC1)N(C(=O)Cn1ccnc1C)c1cccc(F)c1 (stereo not given) [AGI-5198] (max concentration tested 10000 nM)", "%", -11.8),
]

Supply percent inhibition of viability value. Item: COc1ccc(C2=N[C@@H](c3ccc(Cl)cc3)[C@@H](c3ccc(Cl)cc3)N2C(=O)N2CCNC(=O)C2)c(OC(C)C)c1 [Nutlin-3] (max concentration tested 10000 nM)
3.59

Supply reported percent inhibition of viability belonging to this compound: CCCS(=O)(=O)Nc1ccc(F)c(C(=O)c2c[nH]c3ncc(-c4ccc(Cl)cc4)cc23)c1F [Vemurafenib] (max concentration tested 10000 nM)
-13.6

* * *

- Test system: SNK-6 (IL-2 2.5 ng/mL)
- ASSAY REMARKS: percent inhibition of viability; higher = more inhibition
- EXPERIMENTAL SETUP: 72 h; 0.1 nM
ASSAY READOUT: percent inhibition of viability (%)
Numeric only. Scale: %

Example entries and their recorded answers appear below.
# COMPOUND, UNIT STRING, percent inhibition of viability
rows = [
    ("COc1cc2c(Oc3ccc4[nH]c(C)cc4c3F)ncnc2cc1OCCCN1CCCC1 [Cediranib] (max concentration tested 1000 nM)", "%", -0.01),
    ("C[C@@H](Nc1cc(F)cc(F)c1)c1cc(C(=O)N(C)C)cc2c(=O)cc(N3CCOCC3)oc12 [AZD-8186] (max concentration tested 1000 nM)", "%", 10),
    ("CCn1cc(-c2ccnc3[nH]c(-c4cccc(CN(C)C)c4)cc23)c(-c2ccc(NC(=O)N(C)C)cc2)n1 (max concentration tested 1000 nM)", "%", 20.9),
    ("COc1cc2/c(=N/c3ccc(Br)cc3F)nc[nH]c2cc1OCC1CCN(C)CC1 [Vandetanib] (max concentration tested 1000 nM)", "%", 12.7),
    ("CNC(=O)CN1CCC(Oc2cc3c(Nc4cccc(Cl)c4F)ncnc3cc2OC)CC1 [Sapitinib] (max concentration tested 1000 nM)", "%", 3.05),
    ("Nc1nc(Cl)nc2c1ncn2[C@H]1C[C@H](O)[C@@H](CO)O1 [Cladribine] (max concentration tested 1000 nM)", "%", 11.6),
    ("Oc1ccc2c(c1)CC[C@H](c1ccccc1)[C@@H]2c1ccc(OCCN2CCCC2)cc1 [Lasofoxifene] (max concentration tested 1000 nM)", "%", 4.04),
    ("C=CC(=O)N1CCC[C@@H](n2nc(-c3ccc(Oc4ccccc4)cc3)c3c(N)ncnc32)C1 [Ibrutinib] (max concentration tested 1000 nM)", "%", -11.4),
]

Tell me measured percent inhibition of viability for Cc1ccc(F)c(NC(=O)Nc2ccc(-c3cccc4[nH]nc(N)c34)cc2)c1 [Linifanib] (max concentration tested 1000 nM) please.
-2.9

Quote percent inhibition of viability reported for CC[C@@H]1C(=O)N(C)c2cnc(Nc3ccc(C(=O)NC4CCN(C)CC4)cc3OC)nc2N1C1CCCC1 [BI 2536] (max concentration tested 1000 nM) please.
3.37

Tell me percent inhibition of viability reported for CC[C@H](NC(=O)[C@H](C)NC)C(=O)N1C[C@@H](O)C[C@H]1Cc1c(-c2[nH]c3cc(F)ccc3c2C[C@@H]2C[C@H](O)CN2C(=O)[C@H](CC)NC(=O)[C@H](C)NC)[nH]c2cc(F)ccc12 [Birinapant] (max concentration tested 1000 nM)
-1.62

* * *

- System: YT (IL-2 2.5 ng/mL)
- ASSAY REMARKS: drug sensitivity score (DSS) (DSS units); higher = more sensitive; extreme values may be limits of the assay
- EXPERIMENTAL SETUP: 72 h
drug sensitivity score: recorded values
Answer with a number only.

# MOLECULE, TESTED SYSTEM, ASSAY READOUT, RECORDED NUMBER
measured = [
    ("CC(=O)O[C@H]1C(=O)[C@@]2(C)[C@H]([C@H](OC(=O)c3ccccc3)[C@]3(O)C[C@H](OC(=O)[C@H](O)[C@@H](NC(=O)c4ccccc4)c4ccccc4)C(C)=C1C3(C)C)[C@]1(OC(C)=O)CO[C@@H]1C[C@@H]2O [Paclitaxel] (max concentration tested 1000 nM)", "YT (IL-2 2.5 ng/mL)", "drug sensitivity score", 27.5),
]

Retrieve drug sensitivity score measured for O=C(Nc1cccc(C(F)(F)F)c1)Nc1cc(S(=O)(=O)NC2CC2)ccc1-c1ccsc1 [AGI-6780] (max concentration tested 10000 nM) and print it.
3.31
